assay: yeast display, Sf9 membrane polyspecificity reagent, FACS + sequencing; frameworks hold sequencing errors

{"sequence_content": "QVQLVESGGGLVQAGGSLSLSCAASGLTFVDNAMGWYRQAPWKERELVAAISYNGGSTYYADSVKGRFTISRDHAKTTVYLQMNSLKPEDTAVYSCAADIYVGRYGDMDFWGQGTQVTVSS", "polyreactivity (PSR sort gate)": "low polyreactivity"}
{"sequence_content": "QVQLVESGGGLVQAGGSLRLSCAASGLIFSYNAMGWYRQAPGKERELVASISSGDSTNYADSVKGRFTISRDNAKNTVYLQMNSLKPEDTAVYYCNKVYSWGDYTPPFYFPYDYWGQGTQVTVSS", "polyreactivity (PSR sort gate)": "low polyreactivity"}
{"sequence_content": "QVQLVESGGGLVQAGGSLRLSCAASGRTFRPYAMGWYRQAPGKERELVAAIDSSGTSTYYADSVKGRFTISRDNAKNTVYLKMNSLKPEDTAVYYCAKAWPDHWYSRYDYWGQGTQVTVSS", "polyreactivity (PSR sort gate)": "low polyreactivity"}

---

experiment: yeast display, Sf9 membrane polyspecificity reagent, FACS + sequencing; frameworks hold sequencing errors
test_readout: polyreactivity (PSR sort gate)

Below, 6 sequences whose answers are already recorded.
{"sequence_content": "QVQLVESGGGLVQAGGSLRLSCAASGSTYNINAMGWYRQAPGKERELVAAISWSGGSTYYADSVKGRFTISRDNAKNTVYLQMNSLKPEDTAVYYCNALWVWYRGSSVRWVGGYDYWGQGTQVTVSS", "experimental_value": "high polyreactivity"}
{"sequence_content": "QVQLVESGGGLVQAGGSLRLSCAASGSTFSSNAMGWYRQAPGKEREFVAAISRRTGSTYYADSVKGRFTISRDNANNTVYLQMNSLKPEDTAVYYSAATGEKLARSSFGYWGQGTQVTVSS", "experimental_value": "low polyreactivity"}
{"sequence_content": "QVQLVESGGGLVQAGGSLRLSCAASGGIFFYYVMGWYRQAPGKERELVAAITSGGSTYYADSVKGRFTISRDNAKNTVYLQMNSLKPEDTAVYSCNGRDVVDYSVWSRYAYDYWGQGTQVTVSS", "experimental_value": "low polyreactivity"}
{"sequence_content": "QVQLVESGGGLVQAGGTLRLSCAASGFIFDWNTKGWYRQAPGKERELVAAITESSGSTYYADSVKGRFTISRDNAKNTVYLQMNSLKPEDTAVYYCAAELDVYVSIGSRFHFDYWGQGTQVTVSS", "experimental_value": "low polyreactivity"}
{"sequence_content": "QVQLVESGGGLVQAGGSLRLSCAASGSTFTRYGMGWYRQAPGKERELVAAITTSGSSTYYADSVKGRFTISRDNAKNTVYLQMNSLKPEDTAVYYCAADWSSWGFDYWGQGTQVTVSS", "experimental_value": "low polyreactivity"}
{"sequence_content": "QVQLVESGGGLVQAGGSLRLSCAASGSTVKRNAMGWYRQAPGKERELVAAITQSGGSTYYADSVKGRFTISRHNAKNTVYLQMNSLKPEDTAVYYCAASDFRGRRYDYWGQGTQVTVSS", "experimental_value": "high polyreactivity"}

Qu. So what does the record say about polyreactivity (PSR sort gate) for QVQLVESGGGLVQAGGRLRLSCAASGRTMGWYRQAPRKERELVAAITSGGGSTYYADSVKWRFTISRDNAKNTVYLQMNSLKPEDTAVYYCARTTIAQLHSIVAPHDYWGQGTQVNVSS ?
Ans. low polyreactivity

Qu. Next sequence up: QVQLVESGGGLVQAGGSHRLSCADSGFILAYYAMGWYRPAPGKERELVAAISIGSSTDYADSVKGRFTISRDNAKNTVYLQMNSLKPEDTAVYYCAARDYYYEYDYWGQGTQVTVSS
Ans. low polyreactivity

Qu. Next sequence up: QVQRVESAGGLVQAGGSLRLSCAASGSTFLYNAMGWYRQAPGKERELVAAISWSGGSTYYADSVKGRFTISRDNAKNTVYLQMNSLKPEDTAVYYCAKPRSWGYNWGQGTQVTVSS
Ans. high polyreactivity

Qu. Next sequence up: QVQLVESGGGLVQAGGSLRLSCAASGFTFRYNAMGWYRQAPGKERELVAAISSDGITSYADSVKGRFTISRDNAKNTVYLQMNSLKPEDTAVYYCAADWRWYSAWHFGYWGQGTQVTVSS
Ans. high polyreactivity

Qu. Next sequence up: QVQLVESGGGLVQAGGSLRLSCAASGSIFNSYAMGWYRQAPGKERELVAAISIRGTRTYYADSVKGRFTISRDNAKNTVYLQMNSLKPEDTAVYYCAADASYTEGMDYWGQGTQVTVSS
Ans. high polyreactivity
